Origin of measurements: PubChem BioAssay (NCI)

# Tested on: ACHN renal
# experimentalProtocol: NCI tumour cell line growth inhibition, 48 h
recordedMetric: TGI

// solved cases for TGI follow
                                   compound  assayedsystem  recordedmetric  valuereported
0    C=C[C@@]1(O)CCCC2=C(C(=O)OCC)CC[C@]21C     ACHN renal             TGI       > 100 µM
1  O=S(=O)(/N=C(\NO)Nc1ccc(Cl)cc1)c1cccc2nsnc12     ACHN renal             TGI       > 100 µM

Now, please, on to the next molecule.
Enter reported TGI observed with ACHN renal for `COc1ccc(OC)c2c1[nH]c(=O)c1c3ncccc3cn21`
> 100 µM

====

Form field: TGI (one value per entry).
# System: SF-268 CNS
# experimentalProtocol: NCI tumour cell line growth inhibition, 48 h

// solved cases for TGI follow
                                   compound  valuereported
0  CC1=C(C(=O)c2ccccc2)C23C(=O)N(c4ccccc4)C(=O)C2=C(O)C=CC3(O)N1 (stereo not drawn)       > 100 µM
1  COc1ccc(C2C3COc4ccccc4C3=NN2c2ccccc2)cc1 (stereo not drawn)       > 100 µM

Field request: TGI | item: C/C=C/CC(C)[C@@H](O)[C@H](NC)C(=O)O (stereo partly drawn)
> 100 µM

====

# Tested on: COLO 205 colon
# experimentalProtocol: NCI tumour cell line growth inhibition, 48 h
recordedMetric: TGI

// solved cases for TGI follow
                                   compound  recordedmetric  valuereported
0             O=C(O)C(Cl)(c1ccccc1)c1ccccc1             TGI       > 100 µM
1             CC1=Nc2sc3c(c2C2=NCCN12)CCCC3             TGI        79.1 µM
2                O=c1[nH]nc(Cc2ccccc2)n1CCO             TGI       > 100 µM
3  C=C1C(=O)O[C@H]2[C@@H](O)[C@H](C)CCC[C@]3(C)O[C@H]3CC[C@@]3(C)O[C@@H]3C[C@@H]12             TGI        10.3 µM
4  C/C=C/CC(C)[C@@H](O)[C@H](NC)C(=O)O (stereo partly specified)             TGI       > 100 µM
5  CCCCON1C[C@H](OC(C)=O)C(OC(C)=O)[C@H](OC(C)=O)C1 (stereo partly specified)             TGI       > 100 µM

Field request: TGI | item: `COc1ccc(N2C=Nn3c(nc4sc5c(c4c3=O)CCCC5)C2)cc1`
> 100 µM

Same read-out for CCCCCCCCCCCCCCCCOC[C@@H](COC(c1ccccc1)(c1ccccc1)c1ccccc1)O[P+](=S)OC (stereo partly specified) ?
38.6 µM

Same read-out for COc1ccc(N2C(=O)C3c4[nH]c5ccc(F)cc5c4C4CCC(c5ccccc5)CC4C3C2=O)cc1 (stereo unspecified) ?
> 100 µM

Same read-out for `N#CC1=C(N)NC(N2CCOCC2)=NC12Nc1ccccc1N2` ?
> 100 µM

Same read-out for FC1C2=C(SC1(F)F)C1CCC2C1 (stereo unspecified) ?
> 100 µM

====

Form field: TGI (one value per entry).
# Tested on: NCI-H23 lung
# experimentalProtocol: NCI tumour cell line growth inhibition, 48 h

// solved cases for TGI follow
                                   compound  valuereported
0  COc1ccc2c(c1)CC[C@H](O)/C2=C/c1cc(OC)c(OC)c(OC)c1       > 100 µM
1  C[N+]1(CCCl)CC[N+](C)(CCCl)CC1 (stereo not given)       > 100 µM
2  CN1C(=O)C(=O)c2cc3c(c4c2c1cc1ccccc14)OCO3       > 100 µM
3     O=C(O)/C(Cc1ccc([N+](=O)[O-])cc1)=N\O       > 100 µM
4       Clc1ccc(C(SCc2ccccc2)SCc2ccccc2)cc1        > 10 µM
5  CCn1c(-c2cc3ccccc3cc2O)nn(C(=O)c2c(Cl)cccc2Cl)c1=S        > 50 µM

Field request: TGI | item: `CN(c1ccccc1Cl)S(=O)(=O)c1ccc([N+](=O)[O-])cc1`
> 100 µM

Same read-out for `CSc1n[n+]2c(s1)SCCC2` ?
> 100 µM

Same read-out for `COc1cc(-c2nc(-c3nc4ccccc4[nH]3)cc3c2[nH]c2ccccc23)cc(OC)c1OC` ?
> 100 µM

Same read-out for `Cc1ccc(/C=N/Nc2ccc3ccccc3n2)s1` ?
> 100 µM

Same read-out for O=[N+]([O-])c1ccc(C=NCC2CCCN3CCCCC23)cc1 (stereo not given) ?
> 100 µM

Same read-out for `NC(=O)c1cccc(Nc2nccc(Nc3cccc4[nH]ncc34)n2)c1` ?
> 25 µM

Same read-out for `Cc1c(C(=O)/C=C/c2ccc(N(C)C)cc2)c(=O)n(-c2ccccc2)n1C` ?
> 100 µM

Same read-out for `C=C[C@@]1(O)CCCC2=C(C(=O)OCC)CC[C@]21C` ?
> 100 µM

Same read-out for FC1C2=C(SC1(F)F)C1CCC2C1 (stereo not given) ?
> 100 µM

====

# System: HCT-116 colon
# experimentalProtocol: NCI tumour cell line growth inhibition, 48 h
Form field: TGI (one value per entry).

// solved cases for TGI follow
compound	TGI
CC1(C)C2CC(=O)C1(C)C(OCc1ccccc1)C2 (stereo not drawn)	66.1 µM
CCCN(CCCC(NC(C)=O)C(=O)NCc1ccccc1)C(=O)NCCCl (stereo not drawn)	> 100 µM
CC(=O)NC1=C[C@@H]([C@H]2COC(C)(C)O2)OC1=O	> 100 µM
COc1ccccc1CNCCCN1C(=O)c2ccc3c4c(ccc(c24)C1=O)C(=O)N(CCCCNCCCN)C3=O	1.94 µM
COC(=O)[C@H](Cc1c[nH]c2ccccc12)NC(=O)c1ccc(CNC(=O)/C=C/c2cccc(Oc3ccccc3)c2)cc1	> 100 µM

Field request: TGI | item: CC(C)(C)[Si](C)(C)OC1[C@@H](O[Si](C)(C)C(C)(C)C)[C@@H](CNC(=O)NC(=O)CCl)O[C@H]1n1cnc2c(NC(=O)Nc3ccccc3)ncnc21 (stereo partly drawn)
1.51 µM

Same read-out for `Cc1nc(N2CCC3(CC2)CO[C@@H](C)[C@H]3N)c(CO)nc1Sc1ccnc(N)c1Cl` ?
> 100 µM

Same read-out for `Cc1cn2c(/C=N/N=C(N)N)c(-c3cccs3)nc2s1` ?
2.63 µM

Same read-out for `O=[N+]([O-])CCc1cccc([N+](=O)[O-])c1` ?
> 100 µM

====

# Tested on: UACC-257 melanoma
# experimentalProtocol: NCI tumour cell line growth inhibition, 48 h
recordedMetric: TGI (µM)
API: value field is a number in µM; no unit string.

// solved cases for TGI follow
>>> df
                                   compound  recordedmetric  unitslabel  valuereported
0  Cc1c2c(OCCN3CCCCC3)nn(C)c(=O)c2c(C)n1-c1ccccc1             TGI          µM           42.6
1  Clc1ccc(C2Nc3ccccc3C3=NCCN32)cc1 (stereo unspecified)             TGI          µM             36
2      COc1cccc(/C=C/C(=O)c2ccc(Cl)cc2Cl)c1             TGI          µM           17.4
3  COc1cc(Nc2nc3ccccc3cc2C(=O)Nc2ccc(F)c(F)c2)cc(OC)c1OC             TGI          µM           6.28

Field request: TGI | item: `CN(CCNCc1cn(C)c2c1ccc1ccccc12)CCNCc1cn(C)c2c1ccc1ccccc12`
3.03

Same read-out for `FC(F)(F)C1(Br)C(c2ccccc2)=C1c1ccccc1` ?
43

Same read-out for `CC1=Nc2sc3c(c2C2=NCCN12)CCCC3` ?
48.5

Same read-out for `COc1ccccc1CNCCCN1C(=O)c2ccc3c4c(ccc(c24)C1=O)C(=O)N(CCCCNCCCN)C3=O` ?
2.08

Same read-out for CCN(CC)CCCC(C)N=C(C1=C(C(=NC(C)CCCN(CC)CC)c2cccc(OC)c2)C(=O)NC1=O)c1cccc(OC)c1 (stereo unspecified) ?
1.75

Same read-out for `CCOC(=O)CNc1nc(=O)c2c(=O)oc(Cl)cc2o1` ?
38.4

Same read-out for `O=c1c(=O)c2c(Br)sc(Br)c2c1=O` ?
36.5

====

# Test system: OVCAR-4 ovarian
# experimentalProtocol: NCI tumour cell line growth inhibition, 48 h; in the data active = GI50 below about 0.43 µM; inactive = the rest
API: response.call in active, inactive

                                   compound  answerlabel
0  Cc1cc(CC(C)CC(C)(C)C)n(O)c(=O)c1 (stereo not drawn) (tested in a mixture with another compound)       active
1  COc1cc(Nc2nc3ccccc3cc2C(=O)Nc2ccc(F)c(F)c2)cc(OC)c1OC     inactive

Now consider a different compound.
Can you look up the reported call for CCC(CNc1cc(OC)cc2cccnc12)NC1CCCCC1 (stereo not drawn) for me?
inactive
